biological target: 5-HT2C (Homo sapiens (Human)); test: 5-HT2C Gq-mediated calcium flux functional assay; format: cell-based; settings: IA = Inactive; N=1-3; read-out: 5-HT2C-Ca2+ FLUX pEC50 (converted)
Sequence (P28335 whole entry, looked up): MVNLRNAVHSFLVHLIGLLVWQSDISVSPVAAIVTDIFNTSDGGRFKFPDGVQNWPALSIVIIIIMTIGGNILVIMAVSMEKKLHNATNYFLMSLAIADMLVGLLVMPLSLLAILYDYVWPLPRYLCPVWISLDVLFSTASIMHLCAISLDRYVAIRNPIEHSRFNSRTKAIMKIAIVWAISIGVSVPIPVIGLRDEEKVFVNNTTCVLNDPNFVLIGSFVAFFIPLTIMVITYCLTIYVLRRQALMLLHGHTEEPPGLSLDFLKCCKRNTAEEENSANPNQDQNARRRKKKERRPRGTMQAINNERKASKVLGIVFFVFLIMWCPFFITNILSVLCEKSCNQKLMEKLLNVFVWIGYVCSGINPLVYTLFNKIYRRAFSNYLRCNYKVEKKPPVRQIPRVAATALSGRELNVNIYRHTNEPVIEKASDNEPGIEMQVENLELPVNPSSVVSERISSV
endpoint: EC50 (nM)
Numbers only, in nM.

* CC(CN)c1c[nH]c2ccc(F)cc12 (centres unmarked) [compound 187, 2-(5-fluoro-1H-indol-3-yl)propan-1-amine] | 18.6
* CN(CCc1c[nH]c2ccc(F)cc12)C1CSC1 [compound 20] | 468
* CN1CCC(c2c[nH]c3cc(F)c(F)cc23)C1 (centres unmarked) [compound 19] | 3.63
* CN1CCC(c2c[nH]c3c(F)cccc23)C1 (centres unmarked) [compound 23] | 20.9

Let us move to another entry and its EC50.
## Input Return EC50 (reported value) for this compound: CN1CC(c2c[nH]c3ccc(F)cc23)C1 [compound 29]
## Output 49
